testedTarget: HTRA2, O43464
Sequence (O43464 355-458): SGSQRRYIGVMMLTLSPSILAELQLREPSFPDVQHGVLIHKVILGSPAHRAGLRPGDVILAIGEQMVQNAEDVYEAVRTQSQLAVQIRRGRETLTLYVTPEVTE
experiment: holdup assay
Set-up: key: below the threshold = too weak to quantify, mostly under pKd 3.1 to 4
experimentalSetup: plain residues with an end cap or a label only (N-terminal biotin on a linker: ado-ado)
experimentalReadout: pKd

Record excerpt, results attached:
INSERT INTO measurements (binder, datavalue) VALUES
  ('LAHVKHKEQI [AQP3, Q92482]', 'below the threshold'),
  ('RFQQRMQTHV [KIRREL1, Q96J84]', 'below the threshold'),
  ('TGLWKHETTV [ADGRA3, Q8IWK6]', 'below the threshold'),
  ('NVYGIESVKI [GRIA2, P42262]', 'below the threshold'),
  ('PPGKHLVTEV [KCNA7, Q96RP8]', 'below the threshold');

GET /value?item= VKRNSKETVV [MARCHF3, Q86UD3] &field=pKd returns below the threshold

Lab book: pKd of KSRVAFFEEL [NF2, P35240] noted as 3.61

Reported pKd for PTPDLPQTRV [KLHDC7A, Q5VTJ3] was below the threshold

Per the records, this binder ( PYSESDDDWC [CACNA1A, O00555] ) has pKd equal to below the threshold

Per the records, this binder ( QSYPSKHDYV [CLDN18, P56856] ) has pKd equal to 3.71

Noted for TRKRSGEAAV [PFKM, P08237] : its pKd reads below the threshold
